Taken from PubChem BioAssay AID2221.

Molecular target: Protein RecA (Mycobacterium tuberculosis (strain ATCC 25618 / H37Rv)) (UniProt P9WHJ3)
Sequence (P9WHJ3 whole entry, looked up): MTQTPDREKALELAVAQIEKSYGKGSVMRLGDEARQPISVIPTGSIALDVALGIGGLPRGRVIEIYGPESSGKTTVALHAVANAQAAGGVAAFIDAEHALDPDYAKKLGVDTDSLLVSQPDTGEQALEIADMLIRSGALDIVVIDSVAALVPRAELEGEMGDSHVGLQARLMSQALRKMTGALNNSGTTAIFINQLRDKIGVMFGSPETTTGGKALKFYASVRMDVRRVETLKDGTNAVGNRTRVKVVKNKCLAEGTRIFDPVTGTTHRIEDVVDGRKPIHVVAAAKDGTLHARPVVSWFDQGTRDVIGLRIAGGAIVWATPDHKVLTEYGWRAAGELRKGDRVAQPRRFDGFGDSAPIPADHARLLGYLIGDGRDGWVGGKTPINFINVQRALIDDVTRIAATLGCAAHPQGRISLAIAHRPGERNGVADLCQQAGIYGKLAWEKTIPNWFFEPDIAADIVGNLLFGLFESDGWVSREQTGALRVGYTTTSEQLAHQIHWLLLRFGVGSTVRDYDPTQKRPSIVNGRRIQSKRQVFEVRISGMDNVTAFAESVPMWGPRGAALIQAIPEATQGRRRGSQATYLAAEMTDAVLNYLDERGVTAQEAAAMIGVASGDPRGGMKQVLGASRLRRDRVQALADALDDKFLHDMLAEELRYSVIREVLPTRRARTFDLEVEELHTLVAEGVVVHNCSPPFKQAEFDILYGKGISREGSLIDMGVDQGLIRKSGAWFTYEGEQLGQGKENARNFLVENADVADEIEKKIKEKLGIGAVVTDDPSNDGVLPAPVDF
Test: Mtb RecA intein splicing inhibitors, primary screen, biochemical, fluorescence, HTS (AID 2221);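 further: 0% = vehicle wells and 100% = reference inhibitor control wells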
Conditions: cell-free RecA intein splicing, concentration not given here
Among all 290,000 compounds or so, about 2,200 (0.76%) were called active. No stated cut-off is given here; in the data, active means inhibition above about 30%; inconclusive means no clear call, values can overlap the other calls; inactive means below that. The sample holds actives, similar compounds and a random draw of the others, so the mix is not that of the screen.
Use one of these outcomes when replying: 1 for active, 0 for inactive

{"columns": ["compound", "group"],
 "data": [
  ["COc1ccc(-n2nnnc2CNC(=O)c2ccc3ccccc3c2)cc1", 0],
  ["Cc1ccc(N(Cc2cc3ccccc3[nH]c2=O)C(=O)c2cccs2)cc1", 0],
  ["O=C(N/N=C\\c1cc(Br)c(Br)o1)C1COc2ccccc2O1 (stereo unspecified)", 0],
  ["CC(=O)n1c(C=Nc2ccccc2)c(O)c2ccccc21", 0],
  ["CCOC(=O)C1=C(c2ccc(OC)cc2)C(=O)c2ccccc2C1=O", 1],
  ["Cc1ccc(CN2CCN(c3ncccn3)CC2)c(C)c1", 0],
  ["O=C(c1ccc(Cl)cc1)c1cnc(Nc2ccccc2)s1", 0],
  ["Cc1ccsc1/C=N/Nc1ccc(Cl)nn1", 0],
  ["CCCOc1ccc(/C=N/NC(=O)C2CC2)c(OCCC)c1", 0],
  ["CC(Oc1cccc(Cl)c1)C(=O)NC1CC(C)(C)NC(C)(C)C1 (stereo unspecified)", 0]
]}

Called result for Cc1cc(C)c(C)c(S(=O)(=O)N[C@@H](C)C(=O)OC(C)C(=O)NC(N)=O)c1C (stereo partly specified) 0

Which result was noted for this compound in the test: `Cc1ccsc1/C=N/NC(=O)Cc1cc(=O)[nH][nH]1` 1

Which outcome did this test record for the compound `CCc1c(-c2ccccc2)nc(N)c(C#N)c1-c1cccs1` ? 0

What classification did `Cc1ccc(F)cc1NC(=O)Cc1nn(C)c(=O)c2ccccc12` end up with in this test? 0

Kindly provide the recorded test outcome for the following compound: CC(OC(=O)c1ccccc1OCc1ccc(Cl)cc1)C(N)=O (stereo unspecified) 0

GET /call?item= `COc1cc(C(=O)NCc2ccc3c(c2)cc(C)n3C)cc(OC)c1OC` returns the recorded outcome of this test. 0

Status in this test for `Cc1ccc(CNC(=O)COc2ccc3c(c2)CCC3)cc1` ? 0

Hi, do you know how CN1CCc2nc(SC(C(=O)O)c3ccccc3)c(C#N)c(-c3cccs3)c2C1 (stereo unspecified) came out in this test? 1
